# Test system: Canis familiaris
# assay_method_text: Clearance in dog at 1 mg/kg, iv
# Type: ADME, organism-based, Canis lupus familiaris
# Design: dose 1 mg/kg, route intravenous
# particulars: in vivo
property_name: clearance (mL/min/kg)

>>> reported_measurement("CCCC[C@H]1CN(CC2CCOCC2)C(=O)OC12CCN(C1(C)CCN(C(=O)c3c(C)ncnc3C)CC1)CC2")
20

* * *

# Papp A→B listing for each entry below
# assay_method_text: Permeability from apical to basolateral side of the human 21 days cultured Caco-2 cells
# Assay type: ADME, cell-based
# particulars: read-out: permeability
property_name: Papp A→B (×10⁻⁶ cm/s)

>>> reported_measurement("CCCCC1N(CC2CCOCC2)C(=O)OC12CCN(C1(C)CCN(C(=O)c3c(C)ncnc3C)CC1)CC2 (configuration not stated)")
0.6
>>> reported_measurement("CCCCC1N(CC2CCCCC2)C(=O)OC12CCN(C1(C)CCN(C(=O)c3c(C)cccc3C)CC1)CC2 (configuration not stated)")
14

* * *

# assay_method_text: Intrinsic clearance in rat liver microsomes assessed per mg of protein
# Format: ADME, Microsome
# particulars: liver microsomes
property_name: microsomal CLint (µL/min/mg)

>>> reported_measurement("CCCCC1N(CC2CCCCC2)C(=O)OC12CCN(C1CCN(C(=O)c3c(C)cccc3C)CC1)CC2 (configuration not stated)")
2000
>>> reported_measurement("CCCCC1N(CC2CCCCC2)C(=O)OC12CCN(C1(C)CCN(C(=O)c3c(C)cccc3C)CC1)CC2 (configuration not stated)")
523

* * *

# assay_method_text: Clearance in rat at 1 mg/kg, iv
# Type: ADME, organism-based
# Parameters: dose 1 mg/kg, route intravenous
# particulars: in vivo
property_name: clearance (mL/min/kg)

>>> reported_measurement("CCCC[C@H]1CN(CC2CCOCC2)C(=O)OC12CCN(C1(C)CCN(C(=O)c3c(C)ncnc3C)CC1)CC2")
52

* * *

# assay_method_text: AUC in rat at 1 mg/kg, po
# Format: ADME, organism-based
# Set-up: dose 1 mg/kg, route oral
# particulars: plasma
property_name: AUC

>>> reported_measurement("CCCC[C@H]1CN(CC2CCOCC2)C(=O)OC12CCN(C1(C)CCN(C(=O)c3c(C)ncnc3C)CC1)CC2")
"54 ng·h/mL"

* * *

# assay_method_text: Half life in rat at 1 mg/kg, iv
# Assay type: ADME, organism-based
# Set-up: dose 1 mg/kg, route intravenous
# particulars: in vivo
property_name: half-life (h)

>>> reported_measurement("CCCC[C@H]1CN(CC2CCOCC2)C(=O)OC12CCN(C1(C)CCN(C(=O)c3c(C)ncnc3C)CC1)CC2")
1.4

* * *

# Tested on: Liver microsomes
# assay_method_text: Intrinsic clearance in human liver microsomes assessed per mg of protein
# Format: ADME, Microsome
# particulars: microsomes
property_name: clearance (µL/min/mg)

>>> reported_measurement("CCCCC1CN(CC2CCCCC2)C(=O)OC12CCN(C1CCN(C(=O)c3c(C)ncnc3C)CC1)CC2 (stereo unspecified)")
119

* * *

# assay_method_text: Oral bioavailability in rat at 1 mg/kg, po
# Type: ADME, organism-based
# particulars: in vivo
property_name: bioavailability

>>> reported_measurement("CCCC[C@H]1CN(CC2CCOCC2)C(=O)OC12CCN(C1(C)CCN(C(=O)c3c(C)ncnc3C)CC1)CC2")
"10%"
